system: MKL-2; test: qHTS assay to identify novel small-molecules to repurpose for Merkel cell carcinoma treatment (AID 1296009); settings: MCC and control cell lines, CellTiter-Glo viability, 72 h; series mostly up to 46 µM; also: nearly all actives have a fitted effect of over 60% in size
Results filed as inconclusive are left out. Activity calls are given as the source filed them. Calls follow the shape of the dose curve; as a rule, active = well fitted inhibition curve with a large enough effect; inconclusive = small, poorly fitted or top-dose-only effect; inactive = flat fitted curve, though single readings scatter.
Outcomes you can answer with include only these: 1 (active), -1 (inactive)

Solved cases (10 shown):
{"COMPOUND": "c1ccc2c(Oc3nc(Nc4ccc(N5CCOCC5)cc4)c4ncn(C5CCCCC5)c4n3)cccc2c1", "ASSIGNED LABEL": -1}
{"COMPOUND": "CCCCCCCCCCCCCCCC(=O)OC[C@@H](NC(=O)C(Cl)Cl)[C@H](O)c1ccc([N+](=O)[O-])cc1", "ASSIGNED LABEL": -1}
{"COMPOUND": "CCS(=O)(=O)Nc1ccc2[nH]c(O)c(C(=Nc3ccc(CN4CCCCC4)cc3)c3ccccc3)c2c1", "ASSIGNED LABEL": -1}
{"COMPOUND": "CC(=O)C1=C(O)C=C2Oc3c(C(C)=O)c(O)c(C)c(O)c3C2(C)C1=O (centres undefined)", "ASSIGNED LABEL": -1}
{"COMPOUND": "COC(=O)[C@@H]1CC2=CC(=O)CC[C@]2(C)[C@@]23O[C@@H]2C[C@@]2(C)[C@H](CC[C@@]24CCC(=O)O4)[C@@H]13", "ASSIGNED LABEL": -1}
{"COMPOUND": "O=C(NNC(=O)c1ccc(CNS(=O)(=O)c2ccc(F)c(Cl)c2)cc1)c1ccccc1", "ASSIGNED LABEL": -1}
{"COMPOUND": "O=C(Nc1ccc(Oc2ccnc3[nH]ccc23)c(F)c1)c1cccn(-c2ccc(F)cc2)c1=O", "ASSIGNED LABEL": -1}
{"COMPOUND": "O=C1NC(=O)C(=Cc2ccc3nccc(-c4ccncc4)c3c2)S1", "ASSIGNED LABEL": 1}
{"COMPOUND": "C[N+]1(C)[C@@H]2C[C@@H](OC(=O)C(O)(c3cccs3)c3cccs3)C[C@H]1[C@@H]1O[C@@H]12", "ASSIGNED LABEL": -1}
{"COMPOUND": "CCc1ccc(C(=O)Nc2cc(CN3CCN(C)CC3)cc(C(F)(F)F)c2)cc1C#Cc1cnc2ccnn2c1", "ASSIGNED LABEL": 1}

Which result was noted for this compound in the test: C=C(C)[C@@H]1CC[C@]2(C(=O)O)CC[C@]3(C)[C@H](CC[C@@H]4[C@@]5(C)CC[C@H](O)C(C)(C)[C@@H]5CC[C@]43C)[C@@H]12
-1

Which result was noted for this compound in the test: Nc1ccn(C2CO[C@H](CO)O2)c(=O)n1 (some centres undefined)
-1

Which result was noted for this compound in the test: COc1cc(OC)c(C=CS(=O)(=O)Cc2ccc(OC)c(NCC(=O)O)c2)c(OC)c1
1

* * *

Experiment: P-glycoprotein substrates identified in KB-8-5-11 adenocarcinoma cell line, qHTS therapeutic library screen (AID 1346987); also: nearly all actives have a fitted effect of over 65% in size
Settings: KB-8-5-11 (P-gp overexpressing) viability, CellTiter-Glo, 72 h; series mostly up to 44.5 µM
Procedure: The ATP-binding cassette transporters P-glycoprotein (P-gp) is known to limit brain penetration of many chemotherapy drugs. […] All cell lines were plated into 1536-well plates at 500 cells/well in 5 uL media. […] CellTiter-Glo reagent (Promega) was dispensed into the wells, incubated for 5 min and luminescence was read on a ViewLux instrument (Perkin-Elmer). […]
Records with an inconclusive call do not appear. Active and inactive are the calls of the source. Calls come from the whole dose curve; as a rule, active = well fitted inhibition curve with a large enough effect; inconclusive = small, poorly fitted or top-dose-only effect; inactive = flat fitted curve, though single readings scatter.
Outcomes you can answer with include only these: true (active), false (inactive)

{"SUBSTANCE SMILES": "CCOc1cc2c(c(F)c1OCC)C(=N)N(CC(=O)c1cc(N3CCOCC3)c(OC)c(C(C)(C)C)c1)C2", "ASSIGNED LABEL": "true"}
{"SUBSTANCE SMILES": "CN(C)c1ccc(C(=O)NCCCCCCC(=O)NO)cc1", "ASSIGNED LABEL": "true"}
{"SUBSTANCE SMILES": "Cc1cn([C@@H]2O[C@H](CO)[C@@H](O)[C@H]2F)c(=O)[nH]c1=O", "ASSIGNED LABEL": "false"}

Which result was noted for this compound in the test: COc1ccc([C@@H]2CNC(=O)C2)cc1OC1CCCC1
false

Which result was noted for this compound in the test: Cc1ccc([N+](=O)[O-])cc1S(=O)(=O)N(C)N=Cc1cnc2ccc(Br)cn12
true

* * *

assay: Quantitative High-Throughput drug screen in 47 multiple myeloma cell lines against the NCATS MIPE library collection: MM1R_ATCC cell viability assay (AID 1918981); conditions: MM1R multiple myeloma cells, CellTiter-Glo viability, 48 h; series mostly up to 45.8 µM; also: nearly all actives have a fitted effect of over 35% in size
Inconclusive results are not listed. Calls of active or inactive are those of the source. Calls follow the shape of the dose curve; as a rule, active = well fitted cell-killing curve with a large enough effect; inconclusive = small, poorly fitted or top-dose-only effect, or effect the other way; inactive = no such curve, though single readings can be large or run the other way.
Outcomes you can answer with include only these: active, inactive

{"MOLECULE": "CCOC(=O)C1=C(C)NC(=S)NC1c1cccc(O)c1 (stereo unspecified)", "ASSIGNED LABEL": "active"}

Which result was noted for this molecule in the test: Cc1nc(NC(=O)N2CCC[C@@H]2C(N)=O)sc1-c1ccnc(C(C)(C)C(F)(F)F)c1
active

* * *

Assay: Quantitative High-Throughput drug screen in 47 multiple myeloma cell lines against the NCATS MIPE library collection: KMS12BM_JCRB cell viability assay (AID 1918971); also: nearly all actives have a fitted effect of over 35% in size
Conditions: KMS12BM myeloma viability, CellTiter-Glo ATP, 48 h; series mostly up to 45.8 µM
Text: PI: Beverly A. Mock Ph.D. Laboratory of Cancer Biology and Genetics, Center for Cancer Research, National Cancer Institute, National Institute of Health, Bethesda, Maryland […] 5; Detector; 425V; Luminescence; Viewlux PerkinElmer. […] 1. […] Briefly, the corresponding myeloma cell lines were screened in 1,536-well plates with 500 cells, 5-uL per well for inhibition of cell viability (assessed by measuring ATP levels with CellTiterGlo). […]
Records with an inconclusive call do not appear. Activity calls are given as the source filed them. The call rests on the fitted dose curve; in most records, active means well fitted cell-killing curve with a large enough effect; inconclusive means small, poorly fitted or top-dose-only effect, or effect the other way; inactive means no such curve, though single readings can be large or run the other way.
Outcomes you can answer with include only these: label 1 = active, label 0 = inactive

Solved cases (5 shown):
{"SUBSTANCE SMILES": "O=C1c2c(O)cccc2[C@@H]([C@@H]2O[C@H](CO)[C@@H](O)[C@H](O)[C@H]2O)c2cc(CO)cc(O)c21", "ASSIGNED LABEL": "label 0"}
{"SUBSTANCE SMILES": "CCc1ccc(C(=O)Nc2cc(CN3CCN(C)CC3)cc(C(F)(F)F)c2)cc1C#Cc1cnc2ccnn2c1", "ASSIGNED LABEL": "label 1"}
{"SUBSTANCE SMILES": "Cc1ccc2nc(NCCN)c3ncc(C)n3c2c1", "ASSIGNED LABEL": "label 1"}
{"SUBSTANCE SMILES": "CC(C)c1cc(C(C)C)c(CC(=O)NS(=O)(=O)Oc2c(C(C)C)cccc2C(C)C)c(C(C)C)c1", "ASSIGNED LABEL": "label 1"}
{"SUBSTANCE SMILES": "NC(=O)N1CCC(CC(=O)N2CCC([C@H]3c4ncc(Br)cc4CCc4cc(Cl)cc(Br)c43)CC2)CC1", "ASSIGNED LABEL": "label 1"}

Which result was noted for this compound in the test: C=CCNc1c(O)cc2c(O)c1C[C@@H](C)C[C@H](OC)[C@@H](O)[C@@H](C)C=C(C)[C@H](OC(N)=O)[C@@H](OC)C=CC=C(C)C(=O)N2
label 1

Which result was noted for this compound in the test: COc1ccc(Nc2cc(-c3cnc(N)nc3)nc(N3CCOCC3)n2)cn1
label 1

Which result was noted for this compound in the test: Cc1ccc(-n2[nH]c(C)c(N=Nc3cccc(-c4cccc(C(=O)O)c4)c3O)c2=O)cc1C
label 1

* * *

experiment: Quantitative High-Throughput drug screen in 47 multiple myeloma cell lines against the NCATS MIPE library collection: KMM1_JCRB cell viability assay (AID 1918960); details: KMM1 myeloma viability, CellTiter-Glo ATP luminescence, 48 h; series mostly up to 45.8 µM; also: nearly all actives have a fitted effect of over 30% in size
Records with an inconclusive call do not appear. Calls of active or inactive are those of the source. Calls come from the whole dose curve; as a rule, active = well fitted cell-killing curve with a large enough effect; inconclusive = small, poorly fitted or top-dose-only effect, or effect the other way; inactive = no such curve, though single readings can be large or run the other way.
Outcomes you can answer with include only these: yes (1) (active), no (0) (inactive)

Solved cases (5 shown):
{"COMPOUND": "C#C[C@]1(O)CC[C@@H]2[C@@H]3CCC4=CC(=O)CC[C@@H]4[C@H]3CC[C@@]21CC", "ASSIGNED LABEL": "no (0)"}
{"COMPOUND": "CC(=O)O[C@@]12CO[C@H]1C[C@H](O)[C@@]1(C)C(=O)[C@H](O)C3=C(C)[C@@H](OC(=O)C(O)[C@@H](NC(=O)OC(C)(C)C)c4ccccc4)C[C@@](O)([C@@H](OC(=O)c4ccccc4)[C@@H]21)C3(C)C (some centres not stated)", "ASSIGNED LABEL": "no (0)"}
{"COMPOUND": "CCCCCCCCc1ccc(CCC(N)(CO)CO)cc1", "ASSIGNED LABEL": "yes (1)"}
{"COMPOUND": "c1cc(N[C@@H]2CCNC2)nc(-c2cnc3ccc(-c4cn[nH]c4)cn23)c1", "ASSIGNED LABEL": "yes (1)"}
{"COMPOUND": "CN[C@H](CC(C)C)C(=O)N[C@H]1C(=O)N[C@@H](CC(N)=O)C(=O)N[C@@H]2C(=O)N[C@H]3C(=O)N[C@H](C(=O)N[C@H](C(=O)O)c4cc(O)cc(O)c4-c4cc3ccc4O)[C@H](O)c3ccc(c(Cl)c3)Oc3cc2cc(c3O[C@@H]2O[C@H](CO)[C@@H](O)[C@H](O)[C@@H]2O[C@H]2C[C@](C)(N)[C@H](O)[C@H](C)O2)Oc2ccc(cc2Cl)[C@H]1O", "ASSIGNED LABEL": "no (0)"}

Which result was noted for this compound in the test: C=CC(=O)N1CCc2ccc(-n3c(=O)ccc4cnc5ccc(-c6cnn(C)c6)cc5c43)cc21
yes (1)

Which result was noted for this compound in the test: O=C(C=Cc1ccc(CN(CCO)CCc2c[nH]c3ccccc23)cc1)NO
yes (1)
